MEASURED_TARGET: H1 receptor (Cavia porcellus)
Construct: Strips of guinea pig ileum, 2 cm in length, were set up in an isolated organ bath; from tissue; host or cells: guinea pig ileum strips
ASSAY_NOTES: guinea pig ileum screen (antagonism of histamine-induced contraction, pA2)
Assay type: cell-based
MEASUREMENT_SETUP: isolated guinea pig ileum strips, histamine dose response, 20 minutes incubation; pA2 by the method of Schild (Schild plots)
Listed below: Kb values for each entry.

COMPOUND | Kb, nM
CN1CCC(C(O)c2nc3ccccc3n2Cc2ccc(F)cc2)CC1 (stereo not shown) | 2.34
CN1CCC(C(=O)c2nc3ccccc3n2Cc2ccc(F)cc2)CC1 | 0.661
O=C(CN1CCC(C(=O)c2nc3ccccc3n2Cc2ccc(F)cc2)CC1)Nc1nnn[nH]1 | 2.4
COC(=O)COCCN1CCC(C(=O)c2nc3ccccc3n2Cc2ccc(F)cc2)CC1 | 1.78

----------
MEASURED_TARGET: H1 receptor (Cavia porcellus, UniProt P31389)
Construct: Strips of guinea pig ileum, 2 cm in length, were set up in an isolated organ bath; from tissue; host or cells: guinea pig ileum strips
Sequence (P31389 whole entry): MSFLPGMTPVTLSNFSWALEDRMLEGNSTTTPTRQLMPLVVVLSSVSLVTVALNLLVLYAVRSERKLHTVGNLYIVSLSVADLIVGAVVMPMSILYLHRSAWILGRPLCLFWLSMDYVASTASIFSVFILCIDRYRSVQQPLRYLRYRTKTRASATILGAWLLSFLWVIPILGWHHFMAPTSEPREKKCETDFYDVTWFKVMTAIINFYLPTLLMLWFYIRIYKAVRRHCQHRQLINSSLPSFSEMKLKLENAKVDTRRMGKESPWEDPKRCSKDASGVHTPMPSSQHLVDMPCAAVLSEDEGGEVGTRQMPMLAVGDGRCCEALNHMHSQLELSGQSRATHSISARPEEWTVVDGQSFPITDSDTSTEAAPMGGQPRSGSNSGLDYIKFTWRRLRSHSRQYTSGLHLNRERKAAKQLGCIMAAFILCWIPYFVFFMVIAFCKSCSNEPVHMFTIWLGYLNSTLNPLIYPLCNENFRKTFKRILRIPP
ASSAY_NOTES: guinea pig ileum screen (antagonism of histamine-induced contraction, pA2)
Type: cell-based
MEASUREMENT_SETUP: isolated guinea pig ileum strips, histamine dose response, 20 minutes incubation; pA2 estimated by the method of Van Rossum
Where a name gives a salt, the structure may show the parent alone.
REPORTED_ENDPOINT: Kb

COMPOUND | REPORTED_ENDPOINT | MEAS_VALUE
O=C(O)CN1CCC(C(=O)c2nc3ccccc3n2Cc2ccc(F)cc2)CC1 [Example 4] | Kb | 0.00234 µM
CCOCCn1c(C(=O)C2CCN(C(=O)OC(C)(C)C)CC2)nc2ccccc21 [Example 1 Step a] | Kb | 0.603 µM
O=C(c1nc2ccccc2n1Cc1ccc(F)cc1)C1CCN(C(=O)C(F)(F)F)CC1 [Example 8] | Kb | 0.0102 µM
CC(=O)N1CCC(C(=O)c2nc3ccccc3n2Cc2ccc(F)cc2)CC1 [Example 7] | Kb | > 0.1 µM
CC(C)(C)OC(=O)N1CCC(C(=O)c2nc3ccccc3n2Cc2ccc(F)cc2)CC1 [Example 2 Step a] | Kb | > 0.1 µM
CCOCCn1c(C(=O)C2CCN(CCc3ccc(OC)cc3)CC2)nc2ccccc21 [Example 1, hydrochloride] | Kb | 0.000407 µM
